For each of the compounds below, state its inhibition at 30 µM.
Tested on: L-02 (normal human hepatocytes) cell line
testName: Cytotoxicity assay, SRB method, L-02
Type: cell-based
testSettings: Homo sapiens, Hepatocyte; L-02, 30 μM, Table S16; read-out: Inhibition rate (%)
One number for each entry, in %.

[
  {
    "compound": "C=CC1(C)CCC(C(=O)C=CC(OC(C)=O)C(C)(C)O)CC1C(=C)C (stereo not drawn) [Compound 7, Lobocatalen G]",
    "unitString": "%",
    "inhibition at 30 µM": 29.8
  }
]

// for each compound in input: emit inhibition at 30 µM
1. C=CC1(C)CCC(C2=CCC3OC2OC3(C)C)CC1C(=C)C (stereo not drawn) [Compound 1, Lobocatalen A]
2. C=CC1(C)CCC(C(C)=CC=CC(C)=O)CC1C(=C)C (stereo not drawn) [Compound 6, Lobocatalen F]
3. C=CC1(C)CCC(C2=COC(C(C)(C)O)CC2=O)CC1C(=C)C (stereo not drawn) [Compound 3, Lobocatalen C]
4. C=CC1(C)CCC(C2=CCC(C(C)(C)O)OC2O)CC1C(=C)C (stereo not drawn) [Compound 2, Lobocatalen B]
5. C=CC1(C)CCC(C(C)=CC(=O)CC(C)(C)O)CC1C(=C)C (stereo not drawn) [Compound 4, Lobocatalen D]

1. 24.9
2. 25.4
3. 22.1
4. 30.2
5. 21.6

====

testName: Cytotoxicity assay, MTT method, K562
Assay type: cell-based, human
testSettings: human, K562 leukemia cells; K562 cell line, MTT method; read-out: Cytotoxic activity (IC50)
Please respond with reported IC50 for every item in the list.

Record excerpt, results attached:
[
  {
    "compound": "C=CC1(C)CCC(C2=CCC3OC2OC3(C)C)CC1C(=C)C (stereo not shown)",
    "reportedProperty": "IC50",
    "valueReported": "> 30 µM"
  },
  {
    "compound": "COc1cccc2c1C(=O)c1c(O)c3c(c(O)c1C2=O)C[C@@](O)(C(=O)CO)C[C@@H]3O[C@H]1C[C@H](N)[C@H](O)[C@H](C)O1 [doxorubicin, reference compound]",
    "reportedProperty": "IC50",
    "valueReported": "< 1 µM"
  },
  {
    "compound": "C=CC1(C)CCC(C(=C)CCC(=O)C(C)(C)O)CC1C(=C)C (stereo not shown)",
    "reportedProperty": "IC50",
    "valueReported": "> 30 µM"
  },
  {
    "compound": "C=CC1(C)CCC(C2=CCC(C(C)(C)O)OC2O)CC1C(=C)C (stereo not shown)",
    "reportedProperty": "IC50",
    "valueReported": "> 30 µM"
  },
  {
    "compound": "C=CC1(C)CCC(C2=COC(C(C)(C)O)CC2=O)CC1C(=C)C (stereo not shown)",
    "reportedProperty": "IC50",
    "valueReported": "> 30 µM"
  },
  {
    "compound": "C=CC1(C)CCC(C(=O)C=CC(OC(C)=O)C(C)(C)O)CC1C(=C)C (stereo not shown)",
    "reportedProperty": "IC50",
    "valueReported": "28 µM"
  }
]

Now look at this one.
Report measured IC50; entry is C=CC1(C)CCC(C(C)=CC(=O)CC(C)(C)O)CC1C(=C)C (stereo not shown) > 30 µM

====

testName: Cytotoxicity assay, SRB method, ASPC-1
Type: cell-based, human
testSettings: human, ASPC-1 pancreatic cancer cells; ASPC-1 cell line, SRB method; read-out: Cytotoxic activity (IC50)
pIC50: −log10 of the molar value.
For each entry below, report its pIC50 value.

Examples with answers:
[
  {
    "molecule": "COc1cccc2c1C(=O)c1c(O)c3c(c(O)c1C2=O)C[C@@](O)(C(=O)CO)C[C@@H]3O[C@H]1C[C@H](N)[C@H](O)[C@H](C)O1 [doxorubicin, reference compound]",
    "pIC50": "> 6.00"
  },
  {
    "molecule": "C=CC1(C)CCC(C(C)=CC(=O)CC(C)(C)O)CC1C(=C)C (stereo not shown) [Compound 4, Lobocatalen D]",
    "pIC50": "< 4.52"
  },
  {
    "molecule": "C=CC1(C)CCC(C(=O)C=CC(OC(C)=O)C(C)(C)O)CC1C(=C)C (stereo not shown) [Compound 7, Lobocatalen G]",
    "pIC50": "< 4.52"
  }
]

Fill in pIC50 for record C=CC1(C)CCC(C2=COC(C(C)(C)O)CC2=O)CC1C(=C)C (stereo not shown) [Compound 3, Lobocatalen C] < 4.52

====

testName: Cytotoxicity assay, SRB method, MDA-MB-231
Format: cell-based, human
testSettings: human, MDA-MB-231 breast cancer cells; MDA-MB-231 cell line, SRB method; read-out: Cytotoxic activity (IC50)
pIC50: −log10 of the molar value.
Could you please report measured pIC50 for the items listed next?

Before answering, review these 5 worked examples.
[
  {
    "molecule": "C=CC1(C)CCC(C2=COC(C(C)(C)O)CC2=O)CC1C(=C)C (stereo not drawn)",
    "pIC50": "< 4.52"
  },
  {
    "molecule": "COc1cccc2c1C(=O)c1c(O)c3c(c(O)c1C2=O)C[C@@](O)(C(=O)CO)C[C@@H]3O[C@H]1C[C@H](N)[C@H](O)[C@H](C)O1 [doxorubicin, reference compound]",
    "pIC50": "> 6.00"
  },
  {
    "molecule": "C=CC1(C)CCC(C(=O)C=CC(OC(C)=O)C(C)(C)O)CC1C(=C)C (stereo not drawn)",
    "pIC50": "< 4.52"
  },
  {
    "molecule": "C=CC1(C)CCC(C2=CCC3OC2OC3(C)C)CC1C(=C)C (stereo not drawn)",
    "pIC50": "< 4.52"
  },
  {
    "molecule": "C=CC1(C)CCC(C(C)=CC(=O)CC(C)(C)O)CC1C(=C)C (stereo not drawn)",
    "pIC50": "< 4.52"
  }
]

Consider now this further molecule.
Item C=CC1(C)CCC(C2=CCC(C(C)(C)O)OC2O)CC1C(=C)C (stereo not drawn) : provide pIC50 < 4.52

====

So I've got a bunch of compounds here, and I need their pIC50 values.
testName: Cytotoxicity assay, SRB method, L-02
Assay type: cell-based, human
testSettings: human, L-02 normal hepatocyte cells; L-02 cell line, SRB method; read-out: Cytotoxic activity (IC50)
pIC50: −log10 of the molar value.

Please review the entries below; each comes with its answer.
[
  {
    "compound": "COc1cccc2c1C(=O)c1c(O)c3c(c(O)c1C2=O)C[C@@](O)(C(=O)CO)C[C@@H]3O[C@H]1C[C@H](N)[C@H](O)[C@H](C)O1 [doxorubicin, reference compound]",
    "valueReported": "> 6.00"
  },
  {
    "compound": "C=CC1(C)CCC(C2=CCC3OC2OC3(C)C)CC1C(=C)C (stereo not drawn)",
    "valueReported": "< 4.52"
  }
]

Here is another compound to look at.
Output measured pIC50 for this item: C=CC1(C)CCC(C(C)=CC(=O)CC(C)(C)O)CC1C(=C)C (stereo not drawn) < 4.52
